// reported IC50 per item
biological target: BTK (Homo sapiens (Human)); assay: In vitro BTK kinase assay: BTK-POLYGAT-LS ASSAY
Sequence (Q06187 whole entry): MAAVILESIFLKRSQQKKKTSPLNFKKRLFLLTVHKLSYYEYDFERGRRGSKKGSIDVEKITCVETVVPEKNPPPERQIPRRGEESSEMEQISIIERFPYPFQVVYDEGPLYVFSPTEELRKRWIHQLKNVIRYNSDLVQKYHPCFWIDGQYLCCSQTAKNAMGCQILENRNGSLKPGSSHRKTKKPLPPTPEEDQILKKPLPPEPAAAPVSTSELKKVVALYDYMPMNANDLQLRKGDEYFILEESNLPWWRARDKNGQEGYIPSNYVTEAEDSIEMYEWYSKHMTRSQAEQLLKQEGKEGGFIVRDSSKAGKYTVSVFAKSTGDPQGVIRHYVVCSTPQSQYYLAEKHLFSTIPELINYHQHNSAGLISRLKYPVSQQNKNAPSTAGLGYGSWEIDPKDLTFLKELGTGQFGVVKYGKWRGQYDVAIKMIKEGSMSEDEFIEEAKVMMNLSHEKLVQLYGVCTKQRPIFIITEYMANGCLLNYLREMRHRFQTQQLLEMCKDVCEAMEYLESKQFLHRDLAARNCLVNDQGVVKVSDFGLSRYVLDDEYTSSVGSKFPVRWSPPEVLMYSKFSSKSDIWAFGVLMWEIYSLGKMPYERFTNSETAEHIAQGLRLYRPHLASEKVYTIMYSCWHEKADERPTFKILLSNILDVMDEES

Completed entries (count: 5):
c1ccc(Nc2nc3ccc(C4CCCN(c5ncnc6[nH]ccc56)C4)cc3[nH]2)cc1 (centres unmarked) :: 1 to 10 µM
O=C(Nc1cccc(C2CCCN(c3ncnc4[nH]ccc34)C2)c1)Nc1c(F)cccc1C(F)(F)F (centres unmarked) :: 1 to 10 µM
O=C(Nc1cc(C2CCCN(c3ncnc4[nH]ccc34)C2)ccc1OC(F)(F)F)c1c(Cl)cccc1Cl (centres unmarked) :: 1 to 10 µM
O=C(Nc1cccc(C2CCCN(c3ncnc4[nH]ccc34)C2)c1)Nc1ccccc1N1CCOCC1 (centres unmarked) :: 0.1 to 0.999 µM
COc1ccc(NC(=O)Nc2cccc(C3CCCN(c4ncnc5[nH]ccc45)C3)c2)cc1 (centres unmarked) :: 1 to 10 µM

Task item: Give the measured IC50 for "CC(C)(C)c1ccccc1NC(=O)Nc1cccc([C@@H]2CCCN(c3ncnc4[nH]ccc34)C2)c1"
Reply: 1 to 10 µM

Task item: Give the measured IC50 for O=C(Nc1cccc(C2CCCN(c3ncnc4[nH]ccc34)C2)c1)NC1CCCC1 (centres unmarked)
Reply: 1 to 10 µM

Task item: Give the measured IC50 for "O=C(Nc1cccc([C@H]2CN(c3ncnc4[nH]ccc34)CC[C@H]2CO)c1)Nc1ccccc1N1CCCC1"
Reply: 0.1 to 0.999 µM
